Hello, the source for this data is PubChem BioAssay, in case you need it.

experiment: NPC library primary testing for decreased DLD-1 cell viability via CellTiter-Glo (AID 1117346); conditions: DLD-1 viability, CellTiter-Glo luminescence; at 20 µM (top of the series)
Activity calls are given as the source filed them.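 The calls were made as follows: active = compounds that lower survival of DLD-1 colon cancer cells in the luminescence readout, no cutoff given; inactive = the rest.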
Would you kindly list viability decrease (inhibition) for each of these compounds?

// lookup viability decrease (inhibition) for Cc1nc(N)nc(N)c1-c1ccc(Cl)c(Cl)c1
68.5% (active)

Look up viability decrease (inhibition) for this compound: CN1CCN(C2=Nc3cc(F)ccc3Cc3ccccc32)CC1
-2.4% (inactive)

Entry CN(C)CCCN1c2ccccc2Sc2ccc(C(F)(F)F)cc21 : reported viability decrease (inhibition) = ?
101% (active)

# viability decrease (inhibition) lookup, item COc1cc(C)nc(-n2nc(C)cc2OC)n1
-17.2% (inactive)

Looking for the measured viability decrease (inhibition) of COC(=O)[C@@H]1[C@H]2C[C@H]3c4[nH]c5ccccc5c4CCN3C[C@@H]2CC[C@@H]1O , can you help?
-9.4% (inactive)

Please report the recorded viability decrease (inhibition) for CCN(CCCCOC(=O)c1ccc(OC)c(OC)c1)C(C)Cc1ccc(OC)cc1 (configuration not stated) .
8% (inactive)

Any idea what viability decrease (inhibition) was measured for O=C1CCc2ccc(OCCCCN3CCN(c4cccc(Cl)c4Cl)CC3)cc2N1 ?
89.5% (active)
